// Cure speed (m/min) Depth cure lookup, one value per entry
# assay_text: Curing experiments: belt cure under LED lamp at 395 nm
# protocol_conditions: 8% w/w photoinitiator in 7:3 w/w bisphenol A ethoxylate diacrylate/tripropylene glycol diacrylate; LED 395 nm; 50 μm film; average of 3 runs

[
  {
    "compound": "CCCCNC(=O)/C=C\\C(=O)c1c(C)cc(C)c(C(=O)P(=O)(c2ccccc2)c2ccccc2)c1C [Precursor 3]",
    "Cure speed (m/min) Depth cure": 1.8
  },
  {
    "compound": "CCCCNC(=O)C(CC(=O)c1c(C)cc(C)c(C(=O)P(=O)(c2ccccc2)c2ccccc2)c1C)N1CCN(C)CC1 (single isomer, unassigned) [Photoinitiator 4]",
    "Cure speed (m/min) Depth cure": 5.0
  },
  {
    "compound": "Cc1cc(C)c(C(=O)P(=O)(c2ccccc2)c2ccccc2)c(C)c1 [SpeedCure TPO]",
    "Cure speed (m/min) Depth cure": 5.6
  },
  {
    "compound": "CCCCNC(=O)C(CC(=O)c1c(C)cc(C)c(C(=O)P(=O)(c2ccccc2)c2ccccc2)c1C)N1CCOCC1 (single isomer, unassigned) [Photoinitiator 3]",
    "Cure speed (m/min) Depth cure": 3.9
  }
]

The reported measurements were obtained from patent US20260209256A1.
